FYI, the data here is from the Human Domainome abundance scans (Beltran et al. 2025).

B1: Zinc finger MYM-type protein 2, residues 463 to 506; numbered along this chain, Q9UBW7 (parent)
chain: IMNCCEQCGEYLPSKGAGNNVLVIDGQQKRFCCQSCVSEYKQVG

Variants of: B1
PROTOCOL DETAILS: abundance fitness (aPCA) (normalised: wild type 0, dead -1); higher = more abundant; growth selection in yeast, the domain comes from the species named
STUDY CONDITIONS: Homo sapiens
EXPERIMENTAL ENDPOINT: abundance fitness
Just the number, please, no unit after it.

Request: Entry S38T needs its abundance fitness filled in; supply it.
Result: -0.113

Request: Entry V43L needs its abundance fitness filled in; supply it.
Result: -0.222

Request: Entry L12T needs its abundance fitness filled in; supply it.
Result: -0.28

Request: Entry C36I needs its abundance fitness filled in; supply it.
Result: 0.163

Request: Entry G16S needs its abundance fitness filled in; supply it.
Result: -0.047

Request: Entry P13M needs its abundance fitness filled in; supply it.
Result: -0.59

Request: Entry E39Q needs its abundance fitness filled in; supply it.
Result: -0.144

Request: Entry F31D needs its abundance fitness filled in; supply it.
Result: -0.167

Request: Entry S38C needs its abundance fitness filled in; supply it.
Result: -0.108

Request: Entry S35C needs its abundance fitness filled in; supply it.
Result: -0.113

Request: Entry G26C needs its abundance fitness filled in; supply it.
Result: -0.059

Request: Entry N19L needs its abundance fitness filled in; supply it.
Result: -0.051

Request: Entry C33Q needs its abundance fitness filled in; supply it.
Result: -0.086
